tgt: Human Serum Albumin (HSA) (Homo sapiens, UniProt P02768)
Construct: HSA (≥96%) and six PFAS were all purchased from Aladdin Chemicals (Shanghai, China); purchased Aladdin Chemicals (Shanghai, China)
Sequence (P02768 25-609): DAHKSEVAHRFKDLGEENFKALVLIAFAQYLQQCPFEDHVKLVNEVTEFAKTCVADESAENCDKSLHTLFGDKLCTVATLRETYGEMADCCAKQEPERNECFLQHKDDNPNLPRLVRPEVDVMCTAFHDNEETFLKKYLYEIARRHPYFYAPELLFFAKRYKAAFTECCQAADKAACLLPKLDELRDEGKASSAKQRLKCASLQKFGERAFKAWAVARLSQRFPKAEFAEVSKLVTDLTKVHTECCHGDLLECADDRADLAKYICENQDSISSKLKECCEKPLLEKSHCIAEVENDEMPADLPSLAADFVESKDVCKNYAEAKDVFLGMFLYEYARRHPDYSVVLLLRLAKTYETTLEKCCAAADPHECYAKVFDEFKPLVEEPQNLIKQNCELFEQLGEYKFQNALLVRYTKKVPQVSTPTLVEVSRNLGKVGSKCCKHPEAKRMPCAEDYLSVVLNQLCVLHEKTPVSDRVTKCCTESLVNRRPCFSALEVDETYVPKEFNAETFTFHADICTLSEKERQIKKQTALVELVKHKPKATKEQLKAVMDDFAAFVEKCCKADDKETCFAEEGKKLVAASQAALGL
protocol.summary: Fluorescence quenching of HSA by PFAS (Stern–Volmer, double logarithmic and Van't Hoff analysis)
Format: binding
settings: fluorescence quenching experiments
property: affinity for HSA

O=C(O)C(F)(F)OC(F)(F)C(F)(F)OC(F)(F)C(F)(F)OC(F)(F)F [PFO3DA, Perfluoro-3,6,9-trioxadecanoic Acid]
high affinity
O=C(O)C(F)(F)C(F)(F)C(F)(F)C(F)(F)C(F)(F)C(F)(F)F [PFHpA, Perfluoroheptanoic Acid]
low affinity
O=C(O)C(F)(F)C(F)(F)C(F)(F)C(F)(F)C(F)(F)C(F)(F)C(F)(F)C(F)(F)F [PFNA, Perfluorononanoic Acid]
high affinity
O=C(O)C(F)(F)C(F)(F)C(F)(F)C(F)(F)C(F)(F)C(F)(F)C(=O)O [DFSA, Dodecafluorosuberic Acid]
low affinity
O=C(O)C(F)(OC(F)(F)C(F)(OC(F)(F)C(F)(F)C(F)(F)F)C(F)(F)F)C(F)(F)F (stereo not drawn) [HFPO-TA]
high affinity

Asked: affinity for HSA for O=C(O)C(F)(F)C(F)(F)C(F)(F)C(F)(F)C(F)(F)C(F)(F)C(F)(F)F [PFOA, Perfluorooctanoic Acid] ?
Given back: high affinity

----------
Each record here notes measured 3D-EEM Peak B Position λex/λem.
tgt: HSA (Homo sapiens, UniProt P02768)
Construct: HSA (≥96%) and six PFAS were all purchased from Aladdin Chemicals (Shanghai, China); purchased Aladdin Chemicals (Shanghai, China)
Sequence (P02768 25-609): as above
protocol.summary: 3D-EEM fluorescence spectra of HSA–PFAS
settings: HSA 1 × 10^−6, PFAS 1.8 × 10^−5 mol·L^−1

Examples with their reported 3D-EEM Peak B Position λex/λem follow.
O=C(O)C(F)(F)C(F)(F)C(F)(F)C(F)(F)C(F)(F)C(F)(F)C(=O)O
230/330
O=C(O)C(F)(F)C(F)(F)C(F)(F)C(F)(F)C(F)(F)C(F)(F)F
230/335

Consider the record given below.
Asked: 3D-EEM Peak B Position λex/λem for O=C(O)C(F)(OC(F)(F)C(F)(OC(F)(F)C(F)(F)C(F)(F)F)C(F)(F)F)C(F)(F)F (stereo not drawn) ?
Given back: 230/314

----------
tgt: Human Serum Albumin (HSA) (Homo sapiens)
Construct: HSA (≥96%) and six PFAS were all purchased from Aladdin Chemicals (Shanghai, China); purchased Aladdin Chemicals (Shanghai, China)
protocol.summary: Fluorescence quenching of HSA by PFAS (Stern–Volmer, double logarithmic and Van't Hoff analysis)
Assay type: binding
settings: Van't Hoff, 298–310 K
Each record here notes measured ΔH.
Give a bare numeral; the unit kcal/mol is implied.

Examples with their reported ΔH follow.
O=C(O)C(F)(F)C(F)(F)C(F)(F)C(F)(F)C(F)(F)C(F)(F)F [PFHpA, Perfluoroheptanoic Acid]
77.672
O=C(O)C(F)(OC(F)(F)C(F)(OC(F)(F)C(F)(F)C(F)(F)F)C(F)(F)F)C(F)(F)F (stereo not drawn) [HFPO-TA]
98.506
O=C(O)C(F)(F)C(F)(F)C(F)(F)C(F)(F)C(F)(F)C(F)(F)C(F)(F)C(F)(F)F [PFNA, Perfluorononanoic Acid]
-66.503
O=C(O)C(F)(F)C(F)(F)C(F)(F)C(F)(F)C(F)(F)C(F)(F)C(=O)O [DFSA, Dodecafluorosuberic Acid]
40.031
O=C(O)C(F)(F)OC(F)(F)C(F)(F)OC(F)(F)C(F)(F)OC(F)(F)F [PFO3DA, Perfluoro-3,6,9-trioxadecanoic Acid]
-25.471

Consider the record given below.
Asked: ΔH for O=C(O)C(F)(F)C(F)(F)C(F)(F)C(F)(F)C(F)(F)C(F)(F)C(F)(F)F [PFOA, Perfluorooctanoic Acid] ?
Given back: 35.057

----------
tgt: HSA (Homo sapiens, UniProt P02768)
Construct: HSA (≥96%) and six PFAS were all purchased from Aladdin Chemicals (Shanghai, China); purchased Aladdin Chemicals (Shanghai, China)
protocol.summary: Circular dichroism (CD) spectrum, secondary structure of HSA
settings: HSA:PFAS 1:18, 298 K; HSA alone 36.7
property: HSA secondary structure: Random Coil

Examples with their reported HSA secondary structure: Random Coil follow.
O=C(O)C(F)(F)C(F)(F)C(F)(F)C(F)(F)C(F)(F)C(F)(F)C(=O)O [DFSA, Dodecafluorosuberic Acid]
37.0%
O=C(O)C(F)(OC(F)(F)C(F)(OC(F)(F)C(F)(F)C(F)(F)F)C(F)(F)F)C(F)(F)F (stereo not drawn) [HFPO-TA]
38.5%
O=C(O)C(F)(F)C(F)(F)C(F)(F)C(F)(F)C(F)(F)C(F)(F)F [PFHpA, Perfluoroheptanoic Acid]
39.4%

Asked: HSA secondary structure: Random Coil for O=C(O)C(F)(F)OC(F)(F)C(F)(F)OC(F)(F)C(F)(F)OC(F)(F)F [PFO3DA, Perfluoro-3,6,9-trioxadecanoic Acid] ?
Given back: 40.6%

Asked: HSA secondary structure: Random Coil for O=C(O)C(F)(F)C(F)(F)C(F)(F)C(F)(F)C(F)(F)C(F)(F)C(F)(F)F [PFOA, Perfluorooctanoic Acid] ?
Given back: 40.5%

Asked: HSA secondary structure: Random Coil for O=C(O)C(F)(F)C(F)(F)C(F)(F)C(F)(F)C(F)(F)C(F)(F)C(F)(F)C(F)(F)F [PFNA, Perfluorononanoic Acid] ?
Given back: 41.2%

----------
tgt: Human Serum Albumin (HSA) (Homo sapiens)
Construct: HSA (≥96%) and six PFAS were all purchased from Aladdin Chemicals (Shanghai, China); purchased Aladdin Chemicals (Shanghai, China)
protocol.summary: Fluorescence quenching of HSA by PFAS (Stern–Volmer, double logarithmic and Van't Hoff analysis)
Assay type: binding
settings: Van't Hoff, 298–310 K
Classify as follows. Reported ΔS greater than or equal to 1000 J·mol^−1·K^−1: yes (1). Reported ΔS below: no (0).

O=C(O)C(F)(F)C(F)(F)C(F)(F)C(F)(F)C(F)(F)C(F)(F)C(F)(F)F
no (0)

Alright, here's another compound for you.
Asked: Assess whether reported ΔS for `O=C(O)C(F)(F)C(F)(F)C(F)(F)C(F)(F)C(F)(F)C(F)(F)F` sits at 1000 J·mol^−1·K^−1 or higher.
Given back: yes (1)

----------
tgt: Human Serum Albumin (HSA) (Homo sapiens, UniProt P02768)
Construct: HSA (≥96%) and six PFAS were all purchased from Aladdin Chemicals (Shanghai, China); purchased Aladdin Chemicals (Shanghai, China)
protocol.summary: Fluorescence quenching of HSA by PFAS (Stern–Volmer, double logarithmic and Van't Hoff analysis)
Type: binding
settings: T = 310 K
property: n (number of binding sites)
Give the figure by itself; no unit, no explanation.

O=C(O)C(F)(F)C(F)(F)C(F)(F)C(F)(F)C(F)(F)C(F)(F)C(F)(F)F
1.47
O=C(O)C(F)(F)OC(F)(F)C(F)(F)OC(F)(F)C(F)(F)OC(F)(F)F
1.10
O=C(O)C(F)(F)C(F)(F)C(F)(F)C(F)(F)C(F)(F)C(F)(F)C(F)(F)C(F)(F)F
1.10

Asked: Give the reported n (number of binding sites) for `O=C(O)C(F)(F)C(F)(F)C(F)(F)C(F)(F)C(F)(F)C(F)(F)F` (system: Human Serum Albumin (HSA) (Homo sapiens, UniProt P02768)).
Given back: 1.50

Asked: Give the reported n (number of binding sites) for `O=C(O)C(F)(F)C(F)(F)C(F)(F)C(F)(F)C(F)(F)C(F)(F)C(=O)O` (system: Human Serum Albumin (HSA) (Homo sapiens, UniProt P02768)).
Given back: 1.13

----------
tgt: HSA (Homo sapiens, UniProt P02768)
Construct: HSA (≥96%) and six PFAS were all purchased from Aladdin Chemicals (Shanghai, China); purchased Aladdin Chemicals (Shanghai, China)
protocol.summary: Competitive probe experiment (warfarin, ibuprofen, lidocaine)
Type: binding
settings: ibuprofen probe
property: φ (rate of decrease in Kb) (%)
Give a bare numeral; the unit % is implied.

Asked: Give the reported φ (rate of decrease in Kb) for `O=C(O)C(F)(F)C(F)(F)C(F)(F)C(F)(F)C(F)(F)C(F)(F)C(F)(F)C(F)(F)F` (system: HSA (Homo sapiens, UniProt P02768)).
Given back: 13.8

Asked: Give the reported φ (rate of decrease in Kb) for `O=C(O)C(F)(F)OC(F)(F)C(F)(F)OC(F)(F)C(F)(F)OC(F)(F)F` (system: HSA (Homo sapiens, UniProt P02768)).
Given back: 25.8

Asked: Give the reported φ (rate of decrease in Kb) for `O=C(O)C(F)(F)C(F)(F)C(F)(F)C(F)(F)C(F)(F)C(F)(F)C(=O)O` (system: HSA (Homo sapiens, UniProt P02768)).
Given back: 25.4

Asked: Give the reported φ (rate of decrease in Kb) for `O=C(O)C(F)(F)C(F)(F)C(F)(F)C(F)(F)C(F)(F)C(F)(F)F` (system: HSA (Homo sapiens, UniProt P02768)).
Given back: 42.7

Asked: Give the reported φ (rate of decrease in Kb) for O=C(O)C(F)(OC(F)(F)C(F)(OC(F)(F)C(F)(F)C(F)(F)F)C(F)(F)F)C(F)(F)F (centres unmarked) (system: HSA (Homo sapiens, UniProt P02768)).
Given back: 23.8
